inhibition values for the compounds below.
molecular target: Kinesin-like protein KIF11 (Homo sapiens) (UniProt P52732); assay: Inhibition of porcine brain microtubule-stimulated human recombinant GST-tagged Eg5 ATPase activity at 15 uM by microplate reader in presence of Mg2+ ATP relative to control
Sequence (P52732 whole entry): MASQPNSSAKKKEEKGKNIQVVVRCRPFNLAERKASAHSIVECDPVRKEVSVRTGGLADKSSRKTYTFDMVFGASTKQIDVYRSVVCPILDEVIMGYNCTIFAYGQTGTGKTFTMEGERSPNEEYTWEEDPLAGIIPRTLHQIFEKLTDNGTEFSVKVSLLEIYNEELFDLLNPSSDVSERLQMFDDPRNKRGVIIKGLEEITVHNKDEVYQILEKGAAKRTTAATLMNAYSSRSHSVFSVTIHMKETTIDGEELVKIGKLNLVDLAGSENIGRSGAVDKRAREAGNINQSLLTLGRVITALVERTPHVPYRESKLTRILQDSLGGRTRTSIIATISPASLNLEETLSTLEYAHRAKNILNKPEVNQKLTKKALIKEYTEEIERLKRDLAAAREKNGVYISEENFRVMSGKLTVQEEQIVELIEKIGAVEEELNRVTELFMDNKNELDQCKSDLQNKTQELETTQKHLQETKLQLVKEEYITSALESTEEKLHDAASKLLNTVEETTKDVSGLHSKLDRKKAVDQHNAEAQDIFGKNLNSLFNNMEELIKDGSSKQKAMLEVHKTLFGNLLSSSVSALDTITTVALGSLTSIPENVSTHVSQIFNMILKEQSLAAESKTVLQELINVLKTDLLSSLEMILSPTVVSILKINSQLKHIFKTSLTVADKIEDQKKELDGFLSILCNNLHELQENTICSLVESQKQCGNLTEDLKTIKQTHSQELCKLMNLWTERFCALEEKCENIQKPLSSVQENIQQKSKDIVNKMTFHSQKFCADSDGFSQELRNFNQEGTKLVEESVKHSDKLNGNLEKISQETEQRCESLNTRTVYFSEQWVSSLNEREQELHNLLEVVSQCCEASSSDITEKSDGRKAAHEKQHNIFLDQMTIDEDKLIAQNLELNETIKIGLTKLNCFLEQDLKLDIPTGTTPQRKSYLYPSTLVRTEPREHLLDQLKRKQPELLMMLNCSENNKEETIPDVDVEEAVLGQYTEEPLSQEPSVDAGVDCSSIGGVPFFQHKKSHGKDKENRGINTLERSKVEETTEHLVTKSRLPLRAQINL

As a guide, the following entries are already answered.
COc1cccc2[nH]cc(/C(C#N)=C/c3cccnc3)c12; < 20%
N#C/C(=C\c1cccnc1)c1c[nH]c2ccc(OCc3ccccc3)cc12; < 20%
COc1ccc2c(/C(C#N)=C/c3cccnc3)c[nH]c2c1; < 20%

Need inhibition of CCOC(=O)C1=C(C)NC(=S)NC1c1cccc(O)c1 (stereo unspecified) , thanks. > 30%

Please do the same for N#C/C(=C\c1ccc2c(c1)OCO2)c1c[nH]c2ccccc12 as well. < 20%

Please do the same for COc1ccc2[nH]cc(/C(C#N)=C/c3cccnc3)c2c1 as well. < 20%
